molecular target: Aβ aggregates of human AD brain homogenates (Homo sapiens, UniProt P05067); construct: from tissue; host or cells: human Alzheimer's disease brain homogenate; assay: In vitro binding assay for Aβ aggregates of human AD brain homogenates; settings: hot ligand ^18F-AV-45-D3; Avg ± SD, n = 3; read-out: Ki of cold competing drug
Sequence (P05067 672-713 limits assumed): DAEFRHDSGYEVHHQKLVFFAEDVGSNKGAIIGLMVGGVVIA
Measured endpoint: Ki (nM)

{"columns": ["Molecule", "Ki / nM"],
 "data": [
  ["CNc1ccc(/C=C/c2ccc(OCCOCCOCCF)nc2)cc1 [AV-45, reference compound]", 3.24],
  ["[2H]C([2H])([2H])Nc1ccc(/C=C/c2ccc(OCCOCCOCCF)nc2)cc1", 3.25],
  ["[2H]C([2H])([2H])Nc1ccc(/C=C/c2ccc(OCCOCCOCCF)cc2)cc1", 4.15]
]}
